# method_notes: in vivo
# settings: Yorkshire, pig, Amoxicillin (ng/ml) 6 hours
readout_label: concentration at 6 h

So for CC1(C)S[C@@H]2[C@H](NC(=O)[C@H](N)c3ccc(O)cc3)C(=O)N2[C@H]1C(=O)O [Amoxicillin] , the logged concentration at 6 h turned out to be 667 to 1160 ng/mL

* * *

# method_notes: Two arm PK study in dogs: amoxicillin levels in dog serum with or without Formulation 2 (TABLE 17)
# Assay type: in vivo, beagle dogs
# settings: male, beagle, dog, serum, oral, 80 mg/kg, Arm 1: amoxicillin 80 mg/kg oral gavage alone
readout_label: concentration at 10 h (ng/mL)
Answer in ng/mL, number only, no unit symbol.

response.value for CC1(C)S[C@@H]2[C@H](NC(=O)[C@H](N)c3ccc(O)cc3)C(=O)N2[C@H]1C(=O)O (field: concentration at 10 h) = 183

* * *

# method_notes: Piglet study of modified nested SYN-004 formulation with oral amoxicillin
# Assay type: in vivo, Yorkshire piglets
# settings: Yorkshire, pig, serum, oral, 40 mg/kg, Amoxicillin Serum Levels (ng/ml) Mean, pig serum three hours after oral amoxicillin 40 mg/kg, alone or with SYN-004 0.5 mg; 5 pigs; heading: Amoxicillin Serum Levels Mean
readout_label: concentration at 3 h (ng/mL)
# number only, unit ng/mL dropped from output

The reported concentration at 3 h of the molecule CC1(C)S[C@@H]2[C@H](NC(=O)[C@H](N)c3ccc(O)cc3)C(=O)N2[C@H]1C(=O)O was 182

* * *

# method_notes: Two arm PK study in dogs: amoxicillin levels in dog serum with or without Formulation 2 (TABLE 17)
# Assay type: in vivo, beagle dogs
# settings: male, beagle, dog, serum, oral, Arm 2: amoxicillin 80 mg/kg + one capsule Formulation 2 (TABLE 17), 10 mg SYN-004
readout_label: concentration at 2 h (ng/mL)
Answer format: numeric, ng/mL implied, no suffix.

Lab book: concentration at 2 h of CC1(C)S[C@@H]2[C@H](NC(=O)[C@H](N)c3ccc(O)cc3)C(=O)N2[C@H]1C(=O)O noted as 18700

Cited source: patent US12274740B2
